Biological target: CT-L proteolytic activity of the purified rabbit 20S proteasome (Oryctolagus cuniculus, UniProt G1T4Q9)
Sequence (G1T4Q9 60-263): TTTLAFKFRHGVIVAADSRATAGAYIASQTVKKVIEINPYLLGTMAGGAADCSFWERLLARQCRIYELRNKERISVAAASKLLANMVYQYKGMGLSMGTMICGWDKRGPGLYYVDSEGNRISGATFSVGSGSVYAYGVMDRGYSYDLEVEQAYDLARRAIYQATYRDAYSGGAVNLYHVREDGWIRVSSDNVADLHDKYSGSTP
Experiment: CT-L proteolytic activity assay, fluorogenic peptide Suc-Leu-Leu-Val-Tyr-AMC
Type: biochemical
Conditions: relative to compound 1
Parameter measured: fold loss of CT-L activity compared to 1
Number plus unit, in that order.

Known fold loss of CT-L activity compared to 1 results, listed for orientation:
- CCN(Cc1nc(-c2ccc(C)cc2)no1)C(=O)COc1ccc(C)cc1 [Compound 12b]: 10 fold
- Cc1ccc(-c2noc(CN(C(=O)COc3ccccc3)C(C)C)n2)cc1 [Compound 11k]: 14 fold
- Cc1ccc(OCC(=O)N(Cc2nc(-c3ccc(C)cc3)no2)CC(C)C)cc1 [Compound 12a]: 4 fold
- CC(C)N(Cc1nc(-c2ccccc2)no1)C(=O)COc1ccccc1 [Compound 11j]: 10 fold

Kindly review the next compound as well.
Challenge: Endpoint output: fold loss of CT-L activity compared to 1 of CC(C)N(Cc1nc(-c2ccc(C(F)(F)F)cc2)no1)C(=O)COc1ccccc1 [Compound 11l] . Value?
Response given: 18 fold

* * *

Protein target, amino acids: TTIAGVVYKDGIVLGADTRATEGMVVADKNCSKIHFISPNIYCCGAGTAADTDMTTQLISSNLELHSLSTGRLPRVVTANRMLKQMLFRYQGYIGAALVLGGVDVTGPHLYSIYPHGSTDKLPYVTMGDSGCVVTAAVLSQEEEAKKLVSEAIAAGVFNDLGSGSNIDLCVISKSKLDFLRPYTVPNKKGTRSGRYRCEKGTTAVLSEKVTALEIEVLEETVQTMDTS
pIC50: −log10 of the molar value.
Parameter measured: pIC50

• Cc1ccc(OCC(=O)N(Cc2nc(-c3ccc(C)cc3)no2)C(C)C)cc1 = < 4.00

Kindly review the next molecule as well.
Challenge: Endpoint output: pIC50 of CCCc1ccc(OCC(=O)N(Cc2nc(-c3cccnc3)no2)C(C)C)cc1 [Compound 11ad] . Value?
Response given: < 4.00
